FYI, the data here is from patent US10323018B2.

system: PC3 cells; assay: PC3 growth inhibition (Cell-titer glo, 72 hours); assay type: cell-based; details: Homo sapiens, PC-3, 72 h, read-out: Percent Viability, PC3 cells, compound concentration 1.667 μM, 72 hours
valueKind: viability at 1.667 µM (%)
Give the number; % is assumed, so skip it.

Observe how each entry below is paired with its result.
smilesRecord: CCNc1cc(-c2ccc(F)cc2)nc2cc(C(=O)NCCCc3nnc[nH]3)ccc12
valueKind: viability at 1.667 µM
valueUnit: %
testValue: 3
//
smilesRecord: CCOc1cc(-c2cc(F)ccc2OC)nc2cc(C(=O)NCc3nc4cnccc4n3C)ccc12
valueKind: viability at 1.667 µM
valueUnit: %
testValue: 2
//
smilesRecord: CCCc1nc(-c2ccc(Cl)cc2)nc2cc(C(=O)N[C@H]3C[C@@H](c4ncc[nH]4)C3)ccc12
valueKind: viability at 1.667 µM
valueUnit: %
testValue: 2

Next compound, please.
Query block: # viability at 1.667 µM lookup, item CCOc1cc(-c2ccc(F)cc2)nc2cc(C(=O)NCCc3n[nH]nc3C)ccc12
Result block: 2

###

target: UniProt P43490; test: NAMPT enzyme assay (TR-FRET/HTRF with BodiPY ligand); type: binding; details: NAMPT inhibition at compound concentration 1 μM; read-out: Percent Inhibition
In this section, each of the compounds is paired with its reported inhibition at 1 µM.

Example compounds with recorded inhibition at 1 µM:
compound: CCCc1nc(-c2ccc(Cl)s2)nc2cc(C(=O)NCCCc3ncc[nH]3)ccc12 [Compound I-24]
inhibition at 1 µM: > 99%
--
compound: CCOc1cc(-c2cc(Cl)ccc2F)nc2cc(C(=O)NCCCc3ncc[nH]3)ccc12 [Compound I-11]
inhibition at 1 µM: > 99%

Query block: Look up inhibition at 1 µM: CCOc1cc(-c2ccc(F)cc2)nc2cc(C(=O)NCCCc3n[nH]nc3C)ccc12 [Compound I-133]
Result block: > 99%

###

target: hNAMPT protein (Homo sapiens (Human)); assay: NAMPT enzyme assay (TR-FRET/HTRF with BodiPY ligand); format: binding; conditions: NAMPT inhibition at compound concentration 1 μM; read-out: Percent Inhibition
valueKind: inhibition at 1 µM (%)
Write the value in % as a bare number.

compound: CCOc1cc(-c2ccc(F)cc2)nc2cc(C(=O)NCCc3ccn[nH]3)ccc12
testTarget: hNAMPT protein (Homo sapiens (Human))
inhibition at 1 µM, %: 97

compound: CCOc1cc(-c2ccncc2OC)nc2cc(C(=O)NCCCc3nnc[nH]3)ccc12
testTarget: hNAMPT protein (Homo sapiens (Human))
inhibition at 1 µM, %: 99

Next compound, inhibition at 1 µM to be filled in.
Query block: // map CCOc1cc(-c2ccc(F)cc2)nc2cc(C(=O)NCC3CC3c3ncc[nH]3)ccc12 (single isomer, unassigned) to recorded inhibition at 1 µM (system: hNAMPT protein (Homo sapiens (Human)))
Result block: 99

###

target: hNAMPT protein (Homo sapiens (Human), UniProt P43490); experiment: NAMPT enzyme assay (TR-FRET/HTRF with BodiPY ligand); type: binding; conditions: NAMPT inhibition at compound concentration 1 μM; read-out: Percent Inhibition
Sequence (P43490 whole entry): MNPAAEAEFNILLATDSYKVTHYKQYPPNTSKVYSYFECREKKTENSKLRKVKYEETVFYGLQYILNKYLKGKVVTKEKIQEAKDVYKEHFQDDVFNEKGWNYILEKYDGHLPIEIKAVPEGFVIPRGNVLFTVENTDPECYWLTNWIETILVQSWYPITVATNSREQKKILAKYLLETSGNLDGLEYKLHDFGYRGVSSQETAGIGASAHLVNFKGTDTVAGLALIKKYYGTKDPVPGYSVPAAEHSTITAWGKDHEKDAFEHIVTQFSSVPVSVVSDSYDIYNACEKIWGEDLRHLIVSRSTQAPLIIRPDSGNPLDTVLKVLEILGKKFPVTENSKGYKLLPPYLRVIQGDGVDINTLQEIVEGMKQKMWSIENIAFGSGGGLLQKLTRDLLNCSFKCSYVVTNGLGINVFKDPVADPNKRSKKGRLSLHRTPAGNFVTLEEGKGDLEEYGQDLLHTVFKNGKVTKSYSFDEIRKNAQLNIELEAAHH
inhibition at 1 µM values by entry

# example entries with known answers
smilesRecord: CCOc1cc(-c2ccc(=O)n(C)c2)nc2cc(C(=O)NCCCc3[nH]nnc3C)ccc12
inhibition at 1 µM: > 99%
--
smilesRecord: CCOc1cc(-c2cc(F)ccc2OC)nc2cc(C(=O)NCc3nc4cnccc4[nH]3)ccc12
inhibition at 1 µM: > 99%
--
smilesRecord: CCOc1cc(-c2ccc(F)cc2)nc2cc(C(=O)NCCc3c[nH]nc3C)ccc12
inhibition at 1 µM: > 99%

Query block: inhibition at 1 µM for CCOc1cc(-c2cccnc2OC)nc2cc(C(=O)NCCc3nnc[nH]3)ccc12 ?
Result block: 83%

Query block: Item under review: CCOc1cc(-c2ccc(OC)nc2)nc2cc(C(=O)NCCCc3cnn[nH]3)ccc12 . Reported inhibition at 1 µM?
Result block: 99%

Query block: Request the reported inhibition at 1 µM associated with CCOc1cc(-c2ccc(C)nc2OC)nc2cc(C(=O)NCc3nc4cnccc4[nH]3)ccc12
Result block: > 99%

Query block: Need inhibition at 1 µM of CCNc1cc(-c2ccc(F)cc2)nc2cc(C(=O)NCCCc3nnc[nH]3)ccc12 , thanks.
Result block: 61%

###

# collection of IC50 values tested on hNAMPT protein (Homo sapiens (Human), UniProt P43490)

The examples below pair each entry with its known result.
compound: CCOc1cc(-c2ccc(Cl)s2)nc2cc(C(=O)NCCc3nnc[nH]3)ccc12 [Compound I-177]
testTarget: hNAMPT protein (Homo sapiens (Human), UniProt P43490)
IC50: 0.01 to 0.05 µM

compound: CCOc1cc(-c2ccc(Cl)s2)nc2cc(C(=O)NCCc3cnn[nH]3)ccc12 [Compound I-176]
testTarget: hNAMPT protein (Homo sapiens (Human), UniProt P43490)
IC50: 0.01 to 0.05 µM

compound: CCOc1nc(-c2ccc(Cl)cc2)nc2cc(C(=O)NCCCc3ncc[nH]3)ccc12 [Compound I-38]
testTarget: hNAMPT protein (Homo sapiens (Human), UniProt P43490)
IC50: < 0.01 µM

Query block: Field: IC50 (hNAMPT protein (Homo sapiens (Human), UniProt P43490)). Entry: COc1cc(-c2nc(-c3ccc(F)cc3)nc3cc(C(=O)NCCCc4ncc[nH]4)ccc23)ccn1 [Compound I-196]
Result block: < 0.01 µM

###

biological target: UniProt:P43490
valueKind: IC50

Query block: # input molecule: CCOc1cc(C2=CCOCC2)nc2cc(C(=O)NCCCc3nnc[nH]3)ccc12 [Compound I-140] ; wanted: its IC50
Result block: 50 to 100 nM

Query block: Recorded IC50 of CCOc1cc(-c2ccnc(C)c2)nc2cc(C(=O)NCc3ccc4ncnn4c3)ccc12 [Compound I-74] , please.
Result block: < 10 nM

Query block: Fill blank: measured IC50 of the molecule CCOc1cc(-c2ccnc(OC)c2)nc2cc(C(=O)NCCc3[nH]nnc3C)ccc12 [Compound I-83] is ____.
Result block: 10 to 50 nM

Query block: Given the entry CCCc1nc(-c2ccc(Cl)cc2)nc2cc(C(=O)NCCc3cncn3C)ccc12 [Compound I-1] , report its measured IC50.
Result block: < 10 nM

###

target: hNAMPT protein (Homo sapiens (Human)); test: NAMPT enzyme assay (TR-FRET/HTRF with BodiPY ligand); assay type: binding; conditions: NAMPT inhibition at compound concentration 1 μM; read-out: Percent Inhibition
valueKind: inhibition at 1 µM

Query block: Given the molecule CCCc1nc(-c2ccc(Cl)cc2)nc2cc(C(=O)NCCc3cncn3C)ccc12 [Compound I-1] , what is its reported inhibition at 1 µM?
Result block: > 99%

Query block: Quick one: inhibition at 1 µM of CCOc1cc(-c2ccn(C)c(=O)c2)nc2cc(C(=O)NCCCc3cnn[nH]3)ccc12 [Compound I-95] ?
Result block: > 99%

Query block: // query inhibition at 1 µM value for entry CCOc1cc(-c2ccc(F)cc2)nc2cc(C(=O)NCc3nc4cnccc4[nH]3)ccc12 [Compound I-14]
Result block: > 99%

###

The listing below reports IC50 for compounds tested on hNAMPT protein (Homo sapiens (Human)).

For orientation, consider the following solved cases.
compound: CCOc1cc(-c2ccc(F)cc2)nc2cc(C(=O)NCCc3c[nH]nc3C)ccc12 [Compound I-132]
IC50: < 10 nM
--
compound: CCOc1cc(-c2cc(C)nc(OC)c2)nc2cc(C(=O)NCCCc3nnc[nH]3)ccc12 [Compound I-136]
IC50: < 10 nM
--
compound: CCOc1cc(-c2cccc(OC(F)(F)F)c2)nc2cc(C(=O)NCCCc3nnc[nH]3)ccc12 [Compound I-216]
IC50: 50 to 100 nM
--
compound: CCOc1cc(-c2ccc(F)cc2OC)nc2cc(C(=O)NCc3ccn4ncnc4c3)ccc12 [Compound I-85]
IC50: < 10 nM
--
compound: CCOc1cc(-c2ccnc(OC)c2)nc2cc(C(=O)NCc3nc4cnccc4[nH]3)ccc12 [Compound I-194]
IC50: < 10 nM
--
compound: COCCOc1cc(-c2ccc(F)cc2)nc2cc(C(=O)NCCCc3ncc[nH]3)ccc12 [Compound I-156]
IC50: < 10 nM

Pending compound:
Query block: # query: IC50 of entry CCOc1cc(-c2ccc(=O)n(C)c2)nc2cc(C(=O)NCCc3c[nH]nc3C)ccc12 [Compound I-98]
Result block: 50 to 100 nM

###

target: hNAMPT protein (Homo sapiens (Human), UniProt P43490); test: NAMPT enzyme assay (TR-FRET/HTRF with BodiPY ligand); assay type: binding; settings: NAMPT inhibition, IC50 range class
valueKind: IC50

Below: 5 molecules and their reported IC50.
smilesRecord: CCOc1cc(-c2cc(OC)ncc2F)nc2cc(C(=O)NCCCc3ncc[nH]3)ccc12
IC50: < 10 nM
//
smilesRecord: CCOc1cc(-c2ccc(F)cc2)nc2cc(C(=O)NCc3cc4cnccc4s3)ccc12
IC50: < 10 nM
//
smilesRecord: O=C(NCCCc1ncc[nH]1)c1ccc2c(CN3CCSCC3)nc(-c3ccc(Cl)cc3)nc2c1
IC50: > 100 nM
//
smilesRecord: CCOc1cc(-c2ccc(F)cc2)nc2cc(C(=O)NCCCn3cccn3)ccc12
IC50: < 10 nM
//
smilesRecord: COCCOc1cc(-c2ccc(F)cc2)nc2cc(C(=O)NCC(F)(F)Cc3nnc[nH]3)ccc12
IC50: > 100 nM

Query block: Give its IC50 value. Item: CC(C)Oc1nc(-c2ccc(F)cc2)nc2cc(C(=O)NCCCc3ncc[nH]3)ccc12
Result block: < 10 nM

Query block: Name the reported IC50 value associated with the molecule CCOc1cc(-c2ccnc(OC)c2)nc2cc(C(=O)NCc3ccn4ncnc4c3)ccc12
Result block: < 10 nM

Query block: Requested field: IC50. Item: O=C(NCCCc1ncc[nH]1)c1ccc2c(C3CC3)nc(-c3ccc(Cl)cc3)nc2c1
Result block: 10 to 50 nM

Query block: Return reported IC50; argument: CCOc1cc(N2CCCC2)nc2cc(C(=O)NCCCc3ncc[nH]3)ccc12
Result block: 50 to 100 nM

Query block: Record request: IC50 value, item CCOc1cc(-c2ccnc(C)c2)nc2cc(C(=O)NCCCc3ccn[nH]3)ccc12
Result block: 10 to 50 nM

Query block: Which measured IC50 value corresponds to CCOc1cc(-c2cccnc2OC)nc2cc(C(=O)NCc3nc4ccncc4[nH]3)ccc12 ?
Result block: < 10 nM

Query block: Request the reported IC50 associated with CCOc1cc(-c2cc(F)ccc2OC)nc2cc(C(=O)NCc3nc4cnccc4n3C)ccc12
Result block: 50 to 100 nM

Query block: Need IC50, item CCOc1cc(-c2ccc(OC)nc2)nc2cc(C(=O)NCCCc3[nH]nnc3C)ccc12
Result block: 10 to 50 nM
